Tested on: L1210 leukemia ip in BDF1 mice, survival T/C
PROCEDURE DETAILS: NCI In Vivo Anticancer Drug Screen. Data for tumor model L1210 Leukemia (intraperitoneal) in B6D2F1 (BDF1) mice
RUN PARAMETERS: endpoint: mean survival time; dose: 100.0 mg/kg/injection; schedule: Q04DX003 (ip); vehicle: Klucel (hydroxypropylcellulose) (HPC); higher = longer survival
Toxic doses and inconclusive results are not listed.
Recorded T/C for the following compounds

{"COMPOUND": "Clc1ccc2noc(-c3ccccc3)c2c1", "T/C": "100 % of control"}
{"COMPOUND": "O=Cc1ccccc1B(O)O", "T/C": "98 % of control"}
{"COMPOUND": "Nc1cc(N)cc(Cc2ccccc2)c1", "T/C": "100 % of control"}
{"COMPOUND": "CCCC(C1=CC(C)(C)c2ccccc2C1=O)c1ccc(Br)cc1 (configuration not stated)", "T/C": "110 % of control"}
{"COMPOUND": "CN(C)C(=S)Oc1ccc(Cl)cc1S(=O)(=O)F", "T/C": "106 % of control"}
{"COMPOUND": "COc1ccc2c(c1C)CCC1(CO)C(C(C)=O)=CCC21 (configuration not stated)", "T/C": "92 % of control"}
{"COMPOUND": "COC(OC)c1cc(=O)[nH]c(=S)[nH]1", "T/C": "92 % of control"}
{"COMPOUND": "CN1CCN(CCNC(c2ccccc2)C(O)c2ccccc2)CC1 (configuration not stated)", "T/C": "97 % of control"}
{"COMPOUND": "O=C(COc1ccc(Cl)cc1C(=O)O)Nc1ccccc1", "T/C": "93 % of control"}
{"COMPOUND": "NC(=O)C(=O)NCCCCN1CC1", "T/C": "114 % of control"}
{"COMPOUND": "CN(C)c1ccc2c(c1)C(=NO)c1cc(N(C)C)ccc1-2", "T/C": "104 % of control"}
{"COMPOUND": "NNc1n[nH]c(=O)n1N", "T/C": "113 % of control"}
{"COMPOUND": "O=C(C(=S)N1CCOCC1)c1ccccc1", "T/C": "101 % of control"}
{"COMPOUND": "O=C1CN(O)C(c2ccccc2)=c2cc(Cl)ccc2=N1", "T/C": "90 % of control"}
{"COMPOUND": "CC1(C)N=C(N)N=C(N)N1c1ccc(OCC(=O)Nc2ccccc2)c(Cl)c1", "T/C": "97 % of control"}
{"COMPOUND": "CN1CCC(OC(=O)C2CC(=O)NC(=O)C2)CC1", "T/C": "107 % of control"}
{"COMPOUND": "CCOC(=O)C1(C(=O)OCC)CCC(O)N1C(=O)c1cc(OC)c(OC)cc1[N+](=O)[O-] (configuration not stated)", "T/C": "97 % of control"}
{"COMPOUND": "CN(C)c1ccc(/C=C/c2ccc(N(C)C)cc2)cc1", "T/C": "98 % of control"}
{"COMPOUND": "CCOC(=O)Cn1c(=O)c2ccccc2c2ccccc21", "T/C": "97 % of control"}
{"COMPOUND": "CC(=O)c1ccc(OC(=O)Nc2cc([N+](=O)[O-])ccc2F)cc1", "T/C": "98 % of control"}
{"COMPOUND": "CCCCCCCCC/C(C)=N\\NC(=O)c1ccccc1", "T/C": "105 % of control"}
{"COMPOUND": "CN(C)C(=S)Oc1ccc(C(F)(F)F)cc1", "T/C": "95 % of control"}
{"COMPOUND": "CC(C)(C)N1CC(C(=O)c2ccccc2)C1c1ccc([N+](=O)[O-])cc1 (configuration not stated)", "T/C": "96 % of control"}
{"COMPOUND": "CCOC(=O)Nc1ccc([N+](=O)[O-])cc1", "T/C": "99 % of control"}
{"COMPOUND": "CCOC(=O)C1CCC(=O)N1C(=O)c1cc([N+](=O)[O-])cc([N+](=O)[O-])c1 (configuration not stated)", "T/C": "97 % of control"}
{"COMPOUND": "OCc1ccccc1", "T/C": "100 % of control"}
{"COMPOUND": "CC(=O)Nc1cc2c(cc1[N+](=O)[O-])-c1ccc(F)cc1C2", "T/C": "96 % of control"}
